Test system: NCI-H460 lung
method description: NCI-60 one-dose screen, 48 h
experimental setup: 10 µM unless noted
The panel holds about 83,000 compounds, 20% with a hit somewhere; the sample as a whole holds those more often. Active and inactive are the calls of the source. Rule for the calls: active = growth percent below 10; inactive = the rest.
Classes used: YES (active), NO (inactive)

{"compound": "Cn1c(Nc2ccc(C(F)(F)F)cc2)nc2cc(Oc3ccnc(-c4ncc(C(F)(F)F)[nH]4)c3)ccc21", "assigned label": "NO"}
{"compound": "COc1cc2ncnc(Oc3cccc(NC(=O)Nc4cc(C(C)(C)C(F)(F)F)on4)c3)c2cc1OC", "assigned label": "NO"}
{"compound": "Cn1ccnc1C(=O)/C=C/c1ccc(CC(=O)Nc2ccc(C(F)(F)F)cc2)cc1", "assigned label": "YES"}
{"compound": "O=C1NC(=O)/C(=C/c2ccc3nccc(-c4ccncc4)c3c2)S1", "assigned label": "YES"}
{"compound": "CC(C)(C)c1ccc(Cn2cc(CSc3nc4ccccc4s3)nn2)cc1", "assigned label": "NO"}
{"compound": "Cn1cc(-c2cnn3c(N)c(Br)c([C@@H]4CCCNC4)nc23)cn1", "assigned label": "NO"}
{"compound": "Cc1cc(Nc2ncnc3ccc(NC4=NC(C)(C)CO4)cc23)ccc1Oc1ccn2ncnc2c1", "assigned label": "NO"}
{"compound": "COc1cc2c(cc1OCCCCCCN1CCN(c3ncnc4ccccc34)CC1)N=CC1CCCN1C2=O (configuration not stated)", "assigned label": "YES"}
{"compound": "NC[C@@](O)(c1ccc(Cl)cc1)c1ccc(-c2cn[nH]c2)cc1", "assigned label": "NO"}
{"compound": "COC(=O)[C@]12CC[C@@H](C)[C@H](C)[C@@H]1C1=CC[C@@H]3[C@@]4(C)C(C=O)=C[C@@](C)(COS(C)(=O)=O)C4=CC[C@@]3(C)[C@]1(C)CC2", "assigned label": "YES"}
{"compound": "CC1=CC2c3oc(-c4ccccc4)c(C(=O)c4ccccc4)c3CNC2C=C1 (configuration not stated)", "assigned label": "NO"}
{"compound": "Cc1sc2c(c1C)c(=O)nc1c(-c3nc4ccccc4s3)n[nH]n12", "assigned label": "NO"}
{"compound": "COc1ccc2nc3cc(Cl)ccc3c(Nc3ccc(N(C)C)cc3)c2c1", "assigned label": "NO"}
{"compound": "CCN1CCN(Cc2ccc(Cc3ncc(F)c(-c4cc(F)c5nc(C)n(C(C)C)c5c4)n3)nc2)CC1", "assigned label": "YES"}
{"compound": "CC(=O)OC1Oc2ccccc2-c2oc(=O)c(-c3cc4ccc(N(C)C)cc4oc3=O)cc21 (configuration not stated)", "assigned label": "NO"}
{"compound": "[2H]C1([2H])[C@H](C)O[C@H](C)C([2H])([2H])N1c1ccc(NC(=O)c2cccc(-c3ccc(OC(F)(F)F)cc3)c2C)cn1", "assigned label": "NO"}
{"compound": "Cc1nn(-c2nc3ccccc3[nH]2)c2c1C(c1ccc(OCc3ccc(F)cc3)cc1)CC(=O)N2 (configuration not stated)", "assigned label": "NO"}
{"compound": "Cc1cc(Nc2nc(N[C@@H](C)c3ncc(F)cn3)ncc2Cl)n[nH]1", "assigned label": "NO"}
{"compound": "Clc1nc(Cl)c2ncn(C/C=C\\Cn3cnc4c(Cl)nc(Cl)nc43)c2n1", "assigned label": "YES"}
{"compound": "CC(=O)c1cnc2ccc(-c3cc(Cl)c(O)c(Cl)c3)nc2c1NC1CCC(CN(C)C)CC1 (configuration not stated)", "assigned label": "YES"}
{"compound": "COc1ccc(-n2c(=O)c3ccccc3n(Cc3ccc(C(=O)NO)cc3)c2=O)cc1", "assigned label": "NO"}
{"compound": "CS(=O)(=O)N1CCc2c(-c3cnc(N)nc3)nc(N3CCOCC3)nc21", "assigned label": "NO"}
{"compound": "O=C(O)c1ccc2c(c1)nc(Nc1cccc(Cl)c1)c1ccncc12", "assigned label": "NO"}
{"compound": "NC1=Nc2ccccc2N(O)N1", "assigned label": "NO"}
{"compound": "CCCCCCCC(=O)SCC/C=C/[C@@H]1CC(=O)NCc2cc(ccn2)C2=N[C@@](C)(CS2)C(=O)N[C@@H](C(C)C)C(=O)O1", "assigned label": "YES"}
{"compound": "COc1ccc(-c2cc3c(C)nc(N)nc3n(C3CCC(OCCO)CC3)c2=O)cn1 (configuration not stated)", "assigned label": "YES"}
{"compound": "CC(C)(C)CC(C)(C)Nc1c(-c2c(O)c3ccccc3oc2=O)nc2c(Cl)cc(C(F)(F)F)cn12", "assigned label": "NO"}
{"compound": "C=C1C(=O)O[C@H]2[C@H]1CC/C(Cn1cc(-c3cc(C)c(C)cc3C)nn1)=C\\CC[C@@]1(C)O[C@@H]21", "assigned label": "NO"}
{"compound": "COc1cc(N2CCC(N3CCN(C)CC3)CC2)ccc1Nc1ncnc(Nc2ccccc2S(=O)(=O)C(C)C)n1", "assigned label": "NO"}
{"compound": "CN(N)c1nc2sc3c(c2c(=O)[nH]1)CCCC3", "assigned label": "NO"}
{"compound": "C[C@H](NC(=O)c1c(N)nn2cccnc12)c1cc2cccc(C#Cc3cnn(C)c3)c2c(=O)n1-c1ccccc1", "assigned label": "NO"}
{"compound": "O=C1CC(c2cccc(F)c2)c2c(n[nH]c2-c2ccc(Cl)cc2)N1 (configuration not stated)", "assigned label": "NO"}
{"compound": "COC(=O)CCCNc1c(-c2c(O)c(O)cc3c(O)c(-c4c(C)cc5c(-c6nc7ccccn7c6NCCCC(=O)OC)c(O)c(O)cc5c4O)c(C)cc23)nc2ccccn12", "assigned label": "YES"}
{"compound": "CCN1CCN(Cc2ccc(NC(=O)Nc3nc(-c4cc(OC)c(OC)c(OC)c4)cs3)cc2C(F)(F)F)CC1", "assigned label": "YES"}
{"compound": "CCNCCNc1cc(-c2ccc(Cl)c(Cl)c2)c(C#N)c2nc3ccccc3n12", "assigned label": "YES"}
{"compound": "COc1cccc(NC(=O)Nc2ccc(Nc3ncnc4sc5c(c34)CCN(C(=O)CCl)C5)cc2)c1", "assigned label": "NO"}
{"compound": "CN1CC[C@H](c2c(O)cc(O)c3c(=O)cc(-c4ccccc4Cl)oc23)[C@H](O)C1", "assigned label": "YES"}
